Origin of the recorded values: patent US10807988B2

Catalogue of hNOP % inhibition at 1 μM values
Target: human nociceptin/orphanin FQ peptide (hNOP) receptor (Homo sapiens (Human))
Assay type: binding
State just the number; it will be interpreted in %.

Study these solved cases before continuing.
CCNC1(c2ccccc2)CCC2(CC1)CN(c1ccccc1C(N)=O)C(=O)N2 (centres unmarked); 0
CN(CC1CCOC1)[C@]1(c2ccccc2)CC[C@]2(CC1)CN(c1cnc(N3CCOCC3)nc1)C(=O)N2 (some centres unmarked) [SC_3305]; 10
CN(C)C1(c2nc3ccccc3n2C)CCC2(CC1)CN(c1cnc(C(F)(F)F)nc1)C(=O)N2 (centres unmarked); 0
CCN[C@]1(c2ccccc2)CC[C@]2(CC1)CN(c1ccccc1C#N)C(=O)N2; 0

# evaluate next
Ask | Query: hNOP % inhibition at 1 μM; subject: CCN[C@]1(c2ccccc2)CC[C@@]2(CC1)CN(c1cnc(C#N)nc1OC)C(=O)N2
Reply | 0
